- Measured On: recombinant AtCKX2 (Arabidopsis thaliana, UniProt Q9FUJ3)
- Construct: made in house; host or cells: S. cerevisiae strain 23344c ura-
- Sequence (Q9FUJ3 23-501): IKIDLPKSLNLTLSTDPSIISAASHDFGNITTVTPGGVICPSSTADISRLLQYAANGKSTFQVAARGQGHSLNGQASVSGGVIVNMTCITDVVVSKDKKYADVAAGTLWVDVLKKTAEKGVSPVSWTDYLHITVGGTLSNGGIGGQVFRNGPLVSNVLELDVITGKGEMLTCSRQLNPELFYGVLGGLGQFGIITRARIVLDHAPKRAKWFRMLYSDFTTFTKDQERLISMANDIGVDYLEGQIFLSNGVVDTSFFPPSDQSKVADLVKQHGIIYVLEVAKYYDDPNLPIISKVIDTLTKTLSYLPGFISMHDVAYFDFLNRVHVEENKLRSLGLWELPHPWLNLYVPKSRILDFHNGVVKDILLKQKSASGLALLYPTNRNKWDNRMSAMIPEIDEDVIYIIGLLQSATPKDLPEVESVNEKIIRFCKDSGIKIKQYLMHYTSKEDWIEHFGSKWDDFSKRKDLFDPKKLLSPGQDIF
- Protocol Details: Inhibition of cytokinin oxidase/dehydrogenase activity (PMS/MTT microtitre assay)
- Format: biochemical
Experimental Readout: pIC50
Give bare numbers, as −log10 of the molar value.

// returns reported pIC50 for input O=C(Nc1ccccc1)Nc1cnns1 [thidiazuron, reference compound]
4.26

Sourced from patent US10662194B2
